- Test target: T1, recombinant human α5β1 integrin (rh-α5β1; R&D Systems, cat. no. 3230-A5) (human, UniProt P08648 42-995; P05556 21-728)
- T1 construct: bought recombinant heterodimer
- T1 sequence (P08648 42-995 limits assumed, form in doubt, chain 1 of 2): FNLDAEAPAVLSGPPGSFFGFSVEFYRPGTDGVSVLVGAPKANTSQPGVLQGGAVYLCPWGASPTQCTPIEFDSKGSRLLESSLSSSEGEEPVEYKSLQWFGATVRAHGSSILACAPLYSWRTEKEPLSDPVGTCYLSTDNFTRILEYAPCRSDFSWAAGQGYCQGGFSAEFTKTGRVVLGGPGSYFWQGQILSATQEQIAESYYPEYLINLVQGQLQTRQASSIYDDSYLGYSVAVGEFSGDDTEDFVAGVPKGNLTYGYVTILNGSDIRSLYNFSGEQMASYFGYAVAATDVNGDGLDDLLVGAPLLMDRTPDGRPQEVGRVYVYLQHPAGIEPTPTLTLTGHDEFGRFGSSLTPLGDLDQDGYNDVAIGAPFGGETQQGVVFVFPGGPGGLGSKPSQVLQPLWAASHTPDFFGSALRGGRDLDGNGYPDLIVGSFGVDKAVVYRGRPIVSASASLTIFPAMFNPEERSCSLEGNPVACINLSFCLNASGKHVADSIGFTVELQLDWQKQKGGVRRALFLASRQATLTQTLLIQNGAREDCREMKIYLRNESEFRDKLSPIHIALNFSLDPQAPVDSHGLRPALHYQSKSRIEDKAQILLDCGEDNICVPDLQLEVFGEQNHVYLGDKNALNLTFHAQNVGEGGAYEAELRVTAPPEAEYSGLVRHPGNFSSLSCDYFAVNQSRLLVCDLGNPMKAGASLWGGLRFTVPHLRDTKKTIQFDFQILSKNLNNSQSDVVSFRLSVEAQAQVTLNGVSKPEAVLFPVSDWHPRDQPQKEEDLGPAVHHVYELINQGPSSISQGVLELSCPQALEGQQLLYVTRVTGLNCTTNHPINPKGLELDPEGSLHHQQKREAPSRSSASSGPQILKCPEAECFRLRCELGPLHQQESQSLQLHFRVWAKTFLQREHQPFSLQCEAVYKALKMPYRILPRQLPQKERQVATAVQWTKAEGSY
- T1 sequence (P05556 21-728 limits assumed, form in doubt, chain 2 of 2): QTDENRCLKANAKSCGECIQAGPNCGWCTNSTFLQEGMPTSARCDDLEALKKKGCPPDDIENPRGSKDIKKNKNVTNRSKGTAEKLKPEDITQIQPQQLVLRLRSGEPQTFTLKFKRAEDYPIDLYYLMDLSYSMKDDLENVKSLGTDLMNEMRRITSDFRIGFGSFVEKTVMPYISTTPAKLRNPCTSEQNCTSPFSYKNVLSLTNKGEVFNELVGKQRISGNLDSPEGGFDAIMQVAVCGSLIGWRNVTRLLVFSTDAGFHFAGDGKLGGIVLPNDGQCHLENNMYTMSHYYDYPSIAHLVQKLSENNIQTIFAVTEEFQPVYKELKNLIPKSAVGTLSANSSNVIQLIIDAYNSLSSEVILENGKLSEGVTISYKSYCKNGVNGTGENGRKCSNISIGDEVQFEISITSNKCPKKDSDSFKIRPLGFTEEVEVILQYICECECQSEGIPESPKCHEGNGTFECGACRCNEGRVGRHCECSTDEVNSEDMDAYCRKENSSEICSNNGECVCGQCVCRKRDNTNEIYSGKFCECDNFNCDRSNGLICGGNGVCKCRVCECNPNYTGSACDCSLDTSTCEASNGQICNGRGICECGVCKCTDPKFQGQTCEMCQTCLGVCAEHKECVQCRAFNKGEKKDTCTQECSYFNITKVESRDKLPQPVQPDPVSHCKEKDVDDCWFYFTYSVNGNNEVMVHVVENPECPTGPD
- Test name: ELISA, coated rh-α5β1, supernatant 1:10
Entries and their Absorbance 450 nm
Please give only the number in your answer, with no unit.

{"Binder": "A2-8H11 (antibody, V domains shown, mouse hybridoma antibody) VH: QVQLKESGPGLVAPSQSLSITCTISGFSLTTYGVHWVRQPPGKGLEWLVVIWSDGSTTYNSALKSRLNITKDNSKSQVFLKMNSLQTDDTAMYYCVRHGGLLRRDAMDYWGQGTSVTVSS VL: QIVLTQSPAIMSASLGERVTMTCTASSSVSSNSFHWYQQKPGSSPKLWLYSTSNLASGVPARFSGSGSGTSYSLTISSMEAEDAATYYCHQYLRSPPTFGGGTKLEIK", "Measured result": 1.45}
{"Binder": "A2-9A11 (antibody, V domains shown, mouse hybridoma antibody) VH: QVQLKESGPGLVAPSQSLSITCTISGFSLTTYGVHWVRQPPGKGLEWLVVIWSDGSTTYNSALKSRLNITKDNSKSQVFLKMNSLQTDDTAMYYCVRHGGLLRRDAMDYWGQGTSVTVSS VL: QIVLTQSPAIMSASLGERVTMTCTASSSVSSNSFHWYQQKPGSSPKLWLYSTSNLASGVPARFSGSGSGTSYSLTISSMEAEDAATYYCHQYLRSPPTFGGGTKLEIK", "Measured result": 1.91}
{"Binder": "A2-6C10 (antibody, V domains shown, mouse hybridoma antibody) VH: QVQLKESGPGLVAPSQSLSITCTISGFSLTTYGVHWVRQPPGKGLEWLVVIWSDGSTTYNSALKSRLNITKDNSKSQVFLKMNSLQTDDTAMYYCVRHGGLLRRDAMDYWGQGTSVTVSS VL: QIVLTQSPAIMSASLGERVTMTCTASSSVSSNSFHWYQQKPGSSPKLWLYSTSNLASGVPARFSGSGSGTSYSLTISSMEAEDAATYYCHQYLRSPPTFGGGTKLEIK", "Measured result": 2.01}

We now examine a further binder.
Using the record for A2-3B06 (antibody, V domains shown, mouse hybridoma antibody) VH: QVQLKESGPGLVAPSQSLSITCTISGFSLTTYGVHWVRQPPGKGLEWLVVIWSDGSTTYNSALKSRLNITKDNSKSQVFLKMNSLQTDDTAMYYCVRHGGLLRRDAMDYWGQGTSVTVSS VL: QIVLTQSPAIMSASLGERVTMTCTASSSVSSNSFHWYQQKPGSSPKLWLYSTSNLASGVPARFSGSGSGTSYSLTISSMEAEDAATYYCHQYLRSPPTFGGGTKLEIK , report its Absorbance 450 nm. 2.03
